B1: CPEB3 Ribozyme (parent)
chain: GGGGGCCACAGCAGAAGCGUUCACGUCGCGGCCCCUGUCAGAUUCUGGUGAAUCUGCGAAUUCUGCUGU

variants of: B1; assay: self-cleavage, relative activity (ratio to wild type); higher = more cleavage; co-transcriptional
Classify as follows. Reported self-cleavage greater than or equal to 0.2: satisfied. Reported self-cleavage below: not satisfied.

Given the entry A15U C27G , answer whether its self-cleavage meets or surpasses 0.2. not satisfied

Answer whether self-cleavage of C6G U36G is greater than or equal to 0.2. not satisfied

Hi team, for G2A U64G , is the recorded self-cleavage at or above 0.2? not satisfied

Could you tell me if the measured self-cleavage of A23C C24U reaches 0.2 or more? satisfied

Determine whether measured self-cleavage meets or exceeds 0.2 for A42U G50U satisfied

Determine whether measured self-cleavage meets or exceeds 0.2 for G1A C27A not satisfied

Given the entry U61A U67A , answer whether its self-cleavage meets or surpasses 0.2. satisfied

API: above_or_equal(metric=self-cleavage, cutoff=0.2) for item G17A G65U satisfied

Exam item: decide whether the reported self-cleavage for G5A G30U is at least 0.2. not satisfied

Determine whether this variant has self-cleavage no lower than 0.2: G14U C29G not satisfied

// inclusive: self-cleavage at least 0.2? input: A23C U69C satisfied

Dear colleague, could you confirm whether G5A G28A has self-cleavage at or above 0.2? not satisfied

Assess whether reported self-cleavage for G25C G68A sits at 0.2 or higher. satisfied

Hi, just wondering whether U55G U62A shows self-cleavage of 0.2 or higher. satisfied

API: above_or_equal(metric=self-cleavage, cutoff=0.2) for item U21C A23U satisfied

Reported self-cleavage reaches at least 0.2 for G4A G11C ? satisfied

# bool: self-cleavage of G48U U62C >= 0.2 satisfied

In plain terms: is recorded self-cleavage at least 0.2 for G4C U21A ? satisfied

Hi team, for C33G C63G , is the recorded self-cleavage at or above 0.2? satisfied
